System: HIV-1 (NL4-3 strain)
assay-text: Assay for inhibition of HIV replication (MT4-gag-GFP reporter cell line, wild type cell assay, Viking)
Assay type: cell-based
run-conditions: infected MT4-GFP cells in 100% normal human serum; IP or IC50 from 4-parameter dose response curve; read-out: WILD TYPE CELL ASSAY Viking IP (100% NHS)
Description: This assay is a kinetic assay that employs a reporter cell line (MT4-gag-GFP) to quantify the number of new cells infected in each round of replication. MT4-GFP cells (250,000 cells/ml) were bulk-infected with HIV-1 (NL4-3 strain) at low multiplicity of infection (MOI) in RPMI+10% FBS for 24 hours. […] The infected cells (Green GFP cells) were quantified at both 24 and 48 hours post incubation using Acumen eX3. […] Compound potency IP or IC50 was determined by a 4-parameter dose response curve analysis. […]
readout-kind: IC50 (nM)
Kindly provide the numeric value in nM only, without the unit symbol.

Give the measured IC50 of CN1CC[C@@H]2C1C(C)(C)C(=O)c1c(O)c(=O)c(C(=O)NCc3ccc(F)cc3F)cn12 (stereo partly shown) .
174
